- Assay Explanation: photo-DSC monitoring of photopolymerization in dental dimethacrylate mixture
- Condition Summary: monomer DDM, co-initiator DMAB (Table 7)
Endpoint: RP (polymerization rate) (mmol/L/s)
Number only, in mmol/L/s; omit the unit.

Guide cases for RP (polymerization rate), answers given:
>  <Compound>
CCC(=O)C(=O)OC

>  <Recorded Value>
71.2

$$$$
>  <Compound>
CCOC(=O)C(C)=O

>  <Recorded Value>
74.5

$$$$
>  <Compound>
COC(=O)C(=O)C(C)(C)C

>  <Recorded Value>
55.9

$$$$
>  <Compound>
O=C(c1ccccc1)c1ccccc1 [BP, Benzophenone, reference compound]

>  <Recorded Value>
21.4

$$$$

// RP (polymerization rate) value for `CCOC(=O)C(=O)C(C)C` : 81.5
